B1: Caulobacter ParB omega fusion; a variant is named by its letters at X, in order, B8GW30 (parent)
chain: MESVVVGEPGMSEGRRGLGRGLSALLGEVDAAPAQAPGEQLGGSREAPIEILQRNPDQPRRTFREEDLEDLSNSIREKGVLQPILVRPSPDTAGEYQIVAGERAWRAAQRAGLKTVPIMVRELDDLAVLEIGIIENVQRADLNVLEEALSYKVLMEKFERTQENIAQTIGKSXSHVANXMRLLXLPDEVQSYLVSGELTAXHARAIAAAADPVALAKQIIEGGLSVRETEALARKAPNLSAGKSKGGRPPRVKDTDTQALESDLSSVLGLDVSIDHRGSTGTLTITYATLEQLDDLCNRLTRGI

# Variants of: B1
# assay: one-hybrid fitness for binding NBS DNA (the Noc-binding site; scaled: cognate 1, non-cognate 0); higher = stronger binding
# run-conditions: with NBS DNA site
In all, about 81,000 sequences were measured (“one-hybrid fitness for binding NBS DNA”: median about -0.1, highest 2% from about 0.36 on). For the sample, the highest values were picked, then their nearest neighbours and some sequences at random.
Items are presented alongside their recorded one-hybrid fitness for binding NBS DNA.
readout-label: one-hybrid fitness for binding NBS DNA

> print(dat)
     var                           readout.label  result
 1  RKRN  one-hybrid fitness for binding NBS DNA   0.258
 2  DGRN  one-hybrid fitness for binding NBS DNA   ≤ 0.2
 3  VFAC  one-hybrid fitness for binding NBS DNA   ≤ 0.2
 4  RKRP  one-hybrid fitness for binding NBS DNA   ≤ 0.2
 5  RKRS  one-hybrid fitness for binding NBS DNA   0.666
 6  RSWS  one-hybrid fitness for binding NBS DNA   0.238
 7  RCWS  one-hybrid fitness for binding NBS DNA   0.388
 8  VMCN  one-hybrid fitness for binding NBS DNA   ≤ 0.2
 9  RKYS  one-hybrid fitness for binding NBS DNA   0.562
10  LYKT  one-hybrid fitness for binding NBS DNA   ≤ 0.2
11  RPWS  one-hybrid fitness for binding NBS DNA   ≤ 0.2
12  QRNS  one-hybrid fitness for binding NBS DNA   0.716
13  SPGV  one-hybrid fitness for binding NBS DNA   ≤ 0.2
14  QRDS  one-hybrid fitness for binding NBS DNA   0.468
15  KAYA  one-hybrid fitness for binding NBS DNA   ≤ 0.2
16  QPDS  one-hybrid fitness for binding NBS DNA   ≤ 0.2
17  RKWS  one-hybrid fitness for binding NBS DNA   0.467
18  RKWD  one-hybrid fitness for binding NBS DNA   ≤ 0.2
19  THSS  one-hybrid fitness for binding NBS DNA   ≤ 0.2
20  RKYP  one-hybrid fitness for binding NBS DNA   ≤ 0.2
21  TVTC  one-hybrid fitness for binding NBS DNA   ≤ 0.2
22  PGGS  one-hybrid fitness for binding NBS DNA   ≤ 0.2
